Tested on: blackgrass
Test: Test B postemergence herbicide test
Format: in vivo, Alopecurus myosuroides
Conditions: postemergence, 125 g ai/ha; visual rating, scale 0 (no effect) to 100 (complete control)
Description: At the same time, plants selected from these crop and weed species and also blackgrass (Alopecurus myosuroides Huds.), wheat (Triticum aestivum L.) and wild oat (Avena fatua L.) were treated with postemergence applications of test chemicals formulated in the same manner. […] Treated plants and controls were maintained in a greenhouse for 13 to 15 days, after which time all species were compared to controls and visually evaluated. […]
observation.type: Blackgrass plant response rating

[[record]]
smiles_str = "CCNC(=O)c1ccnc(NC(=O)c2nn(C(C)(C)C)cc2CC)c1"
endpoint_value = 0

[[record]]
smiles_str = "CCOc1cccc(NC(=O)c2cn(C(C)(C)C)nc2C)c1"
endpoint_value = 0

[[record]]
smiles_str = "CCn1nc(C(C)(C)C)cc1C(=O)Nc1cc(C(=O)N(C)OC)ccc1F"
endpoint_value = 10

[[record]]
smiles_str = "CCn1nc(C(C)(C)C)cc1C(=O)Nc1ccnc(C(=O)N2CC=CC2)c1"
endpoint_value = 20

[[record]]
smiles_str = "CCN(CC)C(=O)c1cccc(NC(=O)c2nn(C(C)(C)C)cc2Cl)c1"
endpoint_value = 0

[[record]]
smiles_str = "CCNC(=O)c1cc(NC(=O)c2cc(C(C)(C)C)nn2CC)c(F)cc1F"
endpoint_value = 10

[[record]]
smiles_str = "CCn1nc(C(C)(C)C)cc1C(=O)Nc1cc(C(=O)OC(C)(C)C)ccc1F"
endpoint_value = 0

[[record]]
smiles_str = "CC(=O)c1cccc(NC(=O)c2cc(C(C)(C)C)nn2CC(F)(F)F)c1"
endpoint_value = 0

[[record]]
smiles_str = "CCOC(=O)c1cccc(NC(=O)c2sc(C(C)(C)C)nc2CC)c1"
endpoint_value = 20


* * *

System: corn
Test: Test B pre-/postemergence herbicide test
Type: in vivo, Zea mays
Settings: 500 g ai/ha; visual rating, 0 = no effect, 100 = complete control; preemergence
Reported Plant response rating, Corn is given for each of the following molecules.
observation.type: Plant response rating, Corn

[[record]]
molecule = "CCNC(=O)c1cncc(NC(=O)c2cc(C(C)(C)C)nn2CC)c1"
endpoint_value = 0

[[record]]
molecule = "CCNC(=O)c1cc(NC(=O)c2cc(C(C)(C)C)nn2CC)ccn1"
endpoint_value = 0

[[record]]
molecule = "CCn1nc(C(C)(C)C)cc1C(=O)Nc1ccnc(C(=O)N2CC=CC2)c1"
endpoint_value = 0

[[record]]
molecule = "CCNC(=O)c1cc(NC(=O)c2cc(C(C)(C)C)nn2CC)c(F)cc1F"
endpoint_value = 60

[[record]]
molecule = "CCN(CC)C(=O)c1cccc(NC(=O)c2nn(C(C)(C)C)cc2Cl)c1"
endpoint_value = 0

[[record]]
molecule = "CCn1nc(C(C)(C)C)cc1C(=O)Nc1cc(OC(F)(F)F)ccc1F"
endpoint_value = 10

[[record]]
molecule = "CCn1nc(C(C)(C)C)cc1C(=O)Nc1cncc(C(=O)N2CC=CC2)n1"
endpoint_value = 0

[[record]]
molecule = "CCN1N=C(C(C)(C)C)CC1C(=O)Nc1cc(C(=O)N2CC=CC2)ccc1F (racemic)"
endpoint_value = 70

[[record]]
molecule = "CCNC(=O)c1ccc(F)c(NC(=O)c2cc(C(C)(C)C)nn2CC)n1"
endpoint_value = 20

[[record]]
molecule = "CCn1nc(C(C)(C)C)cc1C(=O)Nc1cc(C(=O)N(C)OC)ccc1F"
endpoint_value = 60

[[record]]
molecule = "CCNC(=O)c1ccc(F)c(NC(=O)C2CC(C(C)(C)C)=NN2CC)c1 (racemic)"
endpoint_value = 80

